So I've got a bunch of molecules here, and I need their MTD values.
Assay Procedure: Maximum Tolerated Dose determination
Run Conditions: rat, in vivo, po
# unit: mg/kg | format: bare number

Short answer for CC(c1cccc(OC(=O)N(C)C(C)Cc2ccccc2)c1)N(C)C (stereo not shown) : MTD was 10

Form: molecule = C[C@H](Cc1ccccc1)NC(=O)Oc1cccc([C@H](C)N(C)C)c1 ; MTD = 32

----------
Exercise: for every item that follows, state its recorded pIC50.
Target Entity: BuChE (human, purified from) (Homo sapiens, UniProt P06276)
Construct: BuChE (human, purified from erythrocytes)
Sequence (P06276 29-602): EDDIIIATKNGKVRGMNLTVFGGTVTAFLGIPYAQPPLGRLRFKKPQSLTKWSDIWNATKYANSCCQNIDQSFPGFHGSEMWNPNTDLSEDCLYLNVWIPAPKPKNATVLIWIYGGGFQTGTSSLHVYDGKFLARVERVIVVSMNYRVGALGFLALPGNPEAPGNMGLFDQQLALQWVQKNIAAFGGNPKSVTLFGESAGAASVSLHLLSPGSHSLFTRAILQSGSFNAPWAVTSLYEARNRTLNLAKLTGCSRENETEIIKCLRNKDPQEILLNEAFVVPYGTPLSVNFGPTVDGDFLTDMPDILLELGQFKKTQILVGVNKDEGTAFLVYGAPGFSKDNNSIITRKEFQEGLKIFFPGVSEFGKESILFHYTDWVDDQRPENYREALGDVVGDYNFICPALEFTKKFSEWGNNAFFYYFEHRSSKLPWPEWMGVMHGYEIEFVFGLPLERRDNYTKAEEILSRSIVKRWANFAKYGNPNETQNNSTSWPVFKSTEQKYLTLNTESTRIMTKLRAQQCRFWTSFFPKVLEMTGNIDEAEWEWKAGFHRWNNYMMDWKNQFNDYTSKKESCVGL
Assay Procedure: In vitro inhibition of BuChE, modified Ellman procedure
Run Conditions: purified human butyrylcholinesterase (plasma); mean of two or three independent experiments; read-out: hBuChE IC50
Answer as the number alone; pIC50 is minus log10 of concentration in mol/L.

Noted for C[C@@H](Cc1ccccc1)NC(=O)Oc1cccc([C@H](C)N(C)C)c1 : its pIC50 reads 5.14

Item: CC(c1cccc(OC(=O)N(C)C(C)Cc2ccccc2)c1)N(C)C (stereo not shown) | pIC50: 4.61

// pIC50 value for C[C@H](Cc1ccccc1)NC(=O)Oc1cccc([C@H](C)N(C)C)c1 : 6.38

Value of measured pIC50 for the entry C[C@@H](c1cccc(OC(=O)N(C)[C@@H](C)Cc2ccccc2)c1)N(C)C : 6.48

----------
Tested on: total brain cholinesterase
Assay Procedure: In vivo inhibition of brain cholinesterase after oral dosing
Parameters: species or system rats
Run Conditions: 60 minutes after oral dosing at MTD or highest dose tested; n = 4
Endpoint Label: Brain ChEI

Lab note: measured Brain ChEI of C[C@@H](Cc1ccccc1)NC(=O)Oc1cccc([C@H](C)N(C)C)c1 was 72%

Just so you know, measured Brain ChEI for C[C@H](Cc1ccccc1)NC(=O)Oc1cccc([C@H](C)N(C)C)c1 came out at 25%

The molecule listed as CC(c1cccc(OC(=O)N(C)C(C)Cc2ccccc2)c1)N(C)C (stereo not shown) shows Brain ChEI equal to 64%

# Brain ChEI of C[C@@H](c1cccc(OC(=O)N(C)[C@@H](C)Cc2ccccc2)c1)N(C)C = 50%

----------
Test system: total plasma cholinesterase
Assay Procedure: In vivo inhibition of plasma cholinesterase after oral dosing
Parameters: species or system rats
Run Conditions: 60 minutes after oral dosing at MTD or highest dose tested; n = 4
What Plasma ChEI was measured for each of the following?
Please answer using the number first and the unit second.

So for C[C@@H](Cc1ccccc1)NC(=O)Oc1cccc([C@H](C)N(C)C)c1 [Compound 4a] , the logged Plasma ChEI turned out to be 59%

Record C[C@H](Cc1ccccc1)NC(=O)Oc1cccc([C@H](C)N(C)C)c1 [Compound 4b] . Reported Plasma ChEI: 26%

The compound CC(c1cccc(OC(=O)N(C)C(C)Cc2ccccc2)c1)N(C)C (stereo not shown) [Compound 4d] showed Plasma ChEI equal to 45%

Measured Plasma ChEI of C[C@@H](c1cccc(OC(=O)N(C)[C@@H](C)Cc2ccccc2)c1)N(C)C [Compound 4c] : 50%

----------
Target Entity: rhAChE (Homo sapiens, UniProt P22303)
Sequence (P22303 32-614): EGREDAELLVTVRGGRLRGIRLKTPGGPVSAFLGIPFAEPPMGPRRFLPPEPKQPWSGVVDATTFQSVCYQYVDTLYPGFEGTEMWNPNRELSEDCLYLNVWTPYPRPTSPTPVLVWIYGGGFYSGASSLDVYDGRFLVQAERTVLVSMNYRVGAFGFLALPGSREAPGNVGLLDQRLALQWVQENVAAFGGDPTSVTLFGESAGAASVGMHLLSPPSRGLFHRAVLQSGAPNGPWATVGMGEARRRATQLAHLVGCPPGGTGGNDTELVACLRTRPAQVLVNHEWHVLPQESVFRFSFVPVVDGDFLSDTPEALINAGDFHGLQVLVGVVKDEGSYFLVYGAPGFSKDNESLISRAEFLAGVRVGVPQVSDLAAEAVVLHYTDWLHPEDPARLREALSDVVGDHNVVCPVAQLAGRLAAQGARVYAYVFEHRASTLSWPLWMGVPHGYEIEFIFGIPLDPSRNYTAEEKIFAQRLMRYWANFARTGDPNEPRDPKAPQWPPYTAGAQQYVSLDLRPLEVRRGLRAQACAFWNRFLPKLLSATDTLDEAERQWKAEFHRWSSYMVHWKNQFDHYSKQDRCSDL
Assay Procedure: Decarbamylation / reconstitution of inhibited enzyme
Type: biochemical
Run Conditions: phosphate buffer, 37° C., first-order model
Endpoint Label: Decarbamylation rate k (h⁻¹)
Answer format: numeric, h⁻¹ implied, no suffix.

Lab note: C[C@H](Cc1ccccc1)NC(=O)Oc1cccc([C@H](C)N(C)C)c1 gave Decarbamylation rate k of 0.057

Lab book: Decarbamylation rate k of C[C@@H](Cc1ccccc1)NC(=O)Oc1cccc([C@H](C)N(C)C)c1 noted as 0.558

// CC(c1cccc(OC(=O)N(C)C(C)Cc2ccccc2)c1)N(C)C (stereo not shown) : Decarbamylation rate k value = 0.011

Noted for C[C@@H](c1cccc(OC(=O)N(C)[C@@H](C)Cc2ccccc2)c1)N(C)C : its Decarbamylation rate k reads 0.003

----------
Assay Procedure: Solubility (formulation studies)
Run Conditions: pH 3, aqueous buffer
Endpoint Label: solubility

solubility recorded for this compound, C[C@H](Cc1ccccc1)N(C)C(=O)Oc1cccc([C@H](C)N(C)C)c1 , is > 50 mg/mL

----------
Measured IC50 on rhAChE (Homo sapiens) follows.
Your answer is read as nM, so omit the unit and give the number.

The recorded IC50 for entry C[C@@H](Cc1ccccc1)NC(=O)Oc1cccc([C@H](C)N(C)C)c1 [Compound 4a] equals 508

Reported IC50 for C[C@H](Cc1ccccc1)NC(=O)Oc1cccc([C@H](C)N(C)C)c1 [Compound 4b] was 404
